- study-target: carboxysome-associated PII protein (CPII) (Thiomonas intermedia)
value-type: Kd (µM)
Your answer should be a plain number; it is taken to be in µM.

Which measured Kd value corresponds to "Nc1ncnc2c1ncn2[C@@H]1O[C@H](COP(=O)(O)O)[C@@H](O)[C@H]1O" ?
1800
